These data points were gathered from patent US10844002B2.

EXPERIMENT NOTES: Measurement of mRNA encapsulation in lipid nanoparticles (Quant-iT Ribogreen)
Format: physicochemical
CONDITION NOTES: LNP cationic lipid/DSPC/cholesterol/stealth lipid, N:P 4:1, leptin mRNA
Label 0.0 if % encapsulation (mRNA Leptin) falls below 80%; label 1.0 in every other case.

Example entries begin here.
{"STRUCTURE AS SMILES": "CCCCC/C=C\\C/C=C\\CCCCCCCCOc1ccc(COC(=O)CCCN(C)C)c(OCCCCCCCC/C=C\\C/C=C\\CCCCC)c1", "CATEGORY": 1.0}
{"STRUCTURE AS SMILES": "CCCCCCCCCC(=O)OCCCCCCCCOc1ccc(COC(=O)CCCN(CC)CC)c(OCCCCCCCCOC(=O)CCCCCCCCC)c1", "CATEGORY": 1.0}
{"STRUCTURE AS SMILES": "CCCCCCCCCC(=O)OCCCCCCCCOc1ccc(COC(=O)C2(C)CCN(C)CC2)c(OCCCCCCCCOC(=O)CCCCCCCCC)c1", "CATEGORY": 1.0}

Kindly determine if % encapsulation (mRNA Leptin) recorded for CCCCCCCCCC(=O)OCCCCCCCCOc1ccc(OCCCCCCCCOC(=O)CCCCCCCCC)c(COC(=O)CCN(C)C)c1 is above or exactly 80%. 0.0

Kindly determine if % encapsulation (mRNA Leptin) recorded for CCCCCCCCCC(=O)OCCCCCCCCOc1ccc(OCCCCCCCCOC(=O)CCCCCCCCC)c(COC(=O)CCCN(C)C)c1 is above or exactly 80%. 1.0

Kindly determine if % encapsulation (mRNA Leptin) recorded for CCCCC/C=C\C/C=C\CCCCCCCCOc1ccc(OCCCCCCCC/C=C\C/C=C\CCCCC)c(COC(=O)CCCN(C)C)c1 is above or exactly 80%. 0.0

Kindly determine if % encapsulation (mRNA Leptin) recorded for CCCCCCCCCC(=O)OCCCCCCCCOc1ccc(COC(=O)CCCN(C)C)c(OCCCCCCCCOC(=O)CCCCCCCCC)c1 is above or exactly 80%. 1.0

Kindly determine if % encapsulation (mRNA Leptin) recorded for CCCCCCCCOC(CCC(=O)OCCCCCOc1ccc(OCCCCCOC(=O)CCC(OCCCCCCCC)OCCCCCCCC)c(COC(=O)C2(C)CCN(C)CC2)c1)OCCCCCCCC is above or exactly 80%. 1.0

Kindly determine if % encapsulation (mRNA Leptin) recorded for CCCCC/C=C\C/C=C\CCCCCCCCOc1cc(COC(=O)CCCN(C)C)c(OCCCCCCCC/C=C\C/C=C\CCCCC)cc1C is above or exactly 80%. 1.0

Kindly determine if % encapsulation (mRNA Leptin) recorded for CCCCCCCCOC(CCC(=O)OCCCCCOc1ccc(OCCCCCOC(=O)CCC(OCCCCCCCC)OCCCCCCCC)c(COC(=O)CCCN(CC)CC)c1)OCCCCCCCC is above or exactly 80%. 1.0

Kindly determine if % encapsulation (mRNA Leptin) recorded for CCCCCCCCOC(CCC(=O)OCCCOc1ccc(OCCCOC(=O)CCC(OCCCCCCCC)OCCCCCCCC)c(COC(=O)CCCN(C)C)c1)OCCCCCCCC is above or exactly 80%. 1.0

* * *

Documented polydispersity across a set of compounds
EXPERIMENT NOTES: Characterization of LNP formulations: Z average particle diameter and polydispersity index
Format: physicochemical
CONDITION NOTES: LNP formulation, polydispersity index
Form: value (number only, do not type unit).

Study these solved cases before continuing.
{"STRUCTURE AS SMILES": "CCCCC/C=C\\C/C=C\\CCCCCCCCOc1ccc(OCCCCCCCC/C=C\\C/C=C\\CCCCC)c(COC(=O)CCCN(C)C)c1", "polydispersity": 0.11}
{"STRUCTURE AS SMILES": "CCCCCCCCCC(=O)OCCCCCCCCOc1ccc(OCCCCCCCCOC(=O)CCCCCCCCC)c(COC(=O)C2CCN(C(C)C)CC2)c1", "polydispersity": 0.369}
{"STRUCTURE AS SMILES": "CCCCC/C=C\\C/C=C\\CCCCCCCCOc1ccc(COC(=O)CCCN(C)C)c(OCCCCCCCC/C=C\\C/C=C\\CCCCC)c1", "polydispersity": 0.074}
{"STRUCTURE AS SMILES": "CCCCC/C=C\\C/C=C\\CCCCCCCCOc1cc(COC(=O)CCCN(C)C)c(OCCCCCCCC/C=C\\C/C=C\\CCCCC)cc1C", "polydispersity": 0.108}
{"STRUCTURE AS SMILES": "CCCCCCCCCC(=O)OCCCCCCCCOc1ccc(OCCCCCCCCOC(=O)CCCCCCCCC)c(COC(=O)OCCCN(C)C)c1", "polydispersity": 0.116}

I am curious: what polydispersity value has been reported for CCCCC/C=C\C/C=C\CCCCCCCCOc1cc(COC(=O)OCCCN(C)C)c(OCCCCCCCC/C=C\C/C=C\CCCCC)cc1C ? 0.102

I am curious: what polydispersity value has been reported for CCCCC/C=C\C/C=C\CCCCCCCCOc1cc(COC(=O)OCCCCN(C)C)c(OCCCCCCCC/C=C\C/C=C\CCCCC)cc1C ? 0.210

I am curious: what polydispersity value has been reported for CCCCCCCCCC(=O)OCCCCCCCCOc1ccc(OCCCCCCCCOC(=O)CCCCCCCCC)c(COC(=O)CCCN(C)C)c1 ? 0.096
